Data provenance is paper PMC6549035.

- study-system: human CB1 receptor (hCB1) (Homo sapiens)
- Construct: gene CNR1
- Sequence (P21554 whole entry): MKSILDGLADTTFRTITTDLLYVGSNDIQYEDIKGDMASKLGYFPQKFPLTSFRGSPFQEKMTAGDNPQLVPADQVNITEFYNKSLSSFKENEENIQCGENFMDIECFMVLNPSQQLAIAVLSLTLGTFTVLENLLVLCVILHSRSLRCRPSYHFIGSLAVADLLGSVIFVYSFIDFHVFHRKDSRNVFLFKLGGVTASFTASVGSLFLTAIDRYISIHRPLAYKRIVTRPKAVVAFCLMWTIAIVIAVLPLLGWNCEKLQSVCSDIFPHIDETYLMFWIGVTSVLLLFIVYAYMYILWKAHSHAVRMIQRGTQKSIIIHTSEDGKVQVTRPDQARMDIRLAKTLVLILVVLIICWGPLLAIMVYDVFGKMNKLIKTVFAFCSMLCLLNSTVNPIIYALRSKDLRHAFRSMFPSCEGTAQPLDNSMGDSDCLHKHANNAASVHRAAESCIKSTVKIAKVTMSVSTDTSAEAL
- experimental-protocol: [3H]-CP […] competition radioligand binding on HEK293 membranes
assay-readout: Ki (nM)
The figure you give is taken to be in nM; do not add the unit.

Input: Request the reported Ki associated with "CC(C)(NC(=O)c1nn(CCCCC#N)c2ccccc12)c1ccccc1"
Output: 2.6
